KD 5(+)/7(+) reference
# assayTarget: T1, human C1s (human, UniProt P09871 16-688)
# T1 construct: also called hC1s; serum-derived human C1s (CompTech)
# T1 sequence: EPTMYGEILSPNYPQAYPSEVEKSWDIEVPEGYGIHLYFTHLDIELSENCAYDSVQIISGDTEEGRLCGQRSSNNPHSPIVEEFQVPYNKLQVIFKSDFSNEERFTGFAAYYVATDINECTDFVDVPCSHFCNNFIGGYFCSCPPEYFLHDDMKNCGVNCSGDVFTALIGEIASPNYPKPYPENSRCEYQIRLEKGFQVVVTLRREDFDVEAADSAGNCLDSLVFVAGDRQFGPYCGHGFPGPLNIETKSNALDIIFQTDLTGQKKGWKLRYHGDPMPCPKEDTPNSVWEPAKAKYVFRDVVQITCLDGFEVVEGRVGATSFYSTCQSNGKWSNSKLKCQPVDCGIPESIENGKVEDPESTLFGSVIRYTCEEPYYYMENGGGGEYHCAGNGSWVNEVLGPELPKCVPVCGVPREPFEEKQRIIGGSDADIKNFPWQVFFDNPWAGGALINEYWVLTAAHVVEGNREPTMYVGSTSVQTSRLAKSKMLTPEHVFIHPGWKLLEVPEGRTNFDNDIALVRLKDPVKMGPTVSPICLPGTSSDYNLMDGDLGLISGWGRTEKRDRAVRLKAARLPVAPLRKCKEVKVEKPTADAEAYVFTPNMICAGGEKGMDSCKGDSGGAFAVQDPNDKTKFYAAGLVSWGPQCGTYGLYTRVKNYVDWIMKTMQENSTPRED
# assayOverview: SPR; KD pH 5.8 1.2 mM Ca / KD pH 7.4 1.2 mM Ca
assayReadout: KD 5(+)/7(+)

binder="C1_IPN92H0033-SG4GK/IPN93L0023-SK1 (antibody, human IgG4 S228P, kappa, name in Kabat numbering, V domains shown, also called IPN92H0033/IPN93L0023) VH: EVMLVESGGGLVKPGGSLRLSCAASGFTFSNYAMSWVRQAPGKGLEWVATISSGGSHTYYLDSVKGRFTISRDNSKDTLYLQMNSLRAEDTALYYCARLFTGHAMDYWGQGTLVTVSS VL: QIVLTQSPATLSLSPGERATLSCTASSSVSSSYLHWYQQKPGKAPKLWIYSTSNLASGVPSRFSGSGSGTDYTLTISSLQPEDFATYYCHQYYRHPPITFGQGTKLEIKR" assayreadout="KD 5(+)/7(+)" result=1.6
binder="C1_IPN009VH2-SG4GK/IPN93L0028-SK1 (antibody, human IgG4 S228P, kappa, name in Kabat numbering, V domains shown, also called IPN009VH2/IPN93L0028) VH: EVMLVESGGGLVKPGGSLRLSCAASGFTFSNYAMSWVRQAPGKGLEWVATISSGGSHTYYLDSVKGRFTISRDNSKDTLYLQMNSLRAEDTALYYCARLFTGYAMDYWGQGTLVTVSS VL: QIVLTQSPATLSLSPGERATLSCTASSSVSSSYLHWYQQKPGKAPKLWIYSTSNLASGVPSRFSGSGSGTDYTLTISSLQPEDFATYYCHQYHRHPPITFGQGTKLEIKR" assayreadout="KD 5(+)/7(+)" result=1
binder="C1_IPN92H0026-SG4GK/IPN93L0029-SK1 (antibody, human IgG4 S228P, kappa, name in Kabat numbering, V domains shown, also called IPN92H0026/IPN93L0029) VH: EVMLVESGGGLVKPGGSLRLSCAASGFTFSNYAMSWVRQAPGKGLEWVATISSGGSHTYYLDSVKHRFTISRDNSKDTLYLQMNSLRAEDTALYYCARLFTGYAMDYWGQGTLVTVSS VL: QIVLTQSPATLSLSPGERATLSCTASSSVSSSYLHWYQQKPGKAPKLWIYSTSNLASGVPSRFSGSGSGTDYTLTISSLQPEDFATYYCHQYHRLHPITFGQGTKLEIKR" assayreadout="KD 5(+)/7(+)" result=1.1
